Consider the following variants; for each one, report its abundance fitness.
B1: Spectrin alpha chain, erythrocytic 1, residues 979 to 1036; numbered along this chain, P02549 (parent)
chain: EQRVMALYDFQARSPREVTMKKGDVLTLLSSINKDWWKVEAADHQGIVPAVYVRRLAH

Variants of: B1
Assay: abundance fitness (aPCA) (normalised: wild type 0, dead -1); higher = more abundant; growth selection in yeast, the domain comes from the species named
Details: Homo sapiens
Lab note: write the figure by itself, no unit.

Request: Which abundance fitness reading was recorded for the variant "EQRVMALYGFQARSPREVTMKKGDVLTLLSSINKDWWKVEAADHQGIVPAVYVRRLAH" ?
Response: -0.652

Request: What about this variant? "EQRVMALYDFQARSPREVTMKKGDVLTLLSSINKDWWKVEAADHIGIVPAVYVRRLAH"
Response: 0.027

Request: What about this variant? "EQRVMALYDFQARSPREVTMKKGDVLTLLSSINKDWWKVEAADHQGIVPAVYVRRLCH"
Response: -0.092

Request: What about this variant? "EQRVGALYDFQARSPREVTMKKGDVLTLLSSINKDWWKVEAADHQGIVPAVYVRRLAH"
Response: -0.813

Request: What about this variant? "EQRVMALYDFKARSPREVTMKKGDVLTLLSSINKDWWKVEAADHQGIVPAVYVRRLAH"
Response: 0.303

Request: What about this variant? "EQRVMALYDFQARSPREVTMKKGDVLTSLSSINKDWWKVEAADHQGIVPAVYVRRLAH"
Response: -0.726

Request: What about this variant? "EQRVMALYDFQAGSPREVTMKKGDVLTLLSSINKDWWKVEAADHQGIVPAVYVRRLAH"
Response: -0.527

Request: What about this variant? "EQRVMTLYDFQARSPREVTMKKGDVLTLLSSINKDWWKVEAADHQGIVPAVYVRRLAH"
Response: -0.685

Request: What about this variant? "EQRVMAGYDFQARSPREVTMKKGDVLTLLSSINKDWWKVEAADHQGIVPAVYVRRLAH"
Response: -0.559

Request: What about this variant? "EQRVMALYDFQARRPREVTMKKGDVLTLLSSINKDWWKVEAADHQGIVPAVYVRRLAH"
Response: -0.364

Request: What about this variant? "EQRVMALYDFQARSPREVTMKKGDVLTLLSSINKDWWKVEAADHQGIVPAVRVRRLAH"
Response: -0.53

Request: What about this variant? "EQRVMALYDFQARSPREVTMKKGDVLTLLSSINKDWWKVEAADHQGIVPAVYWRRLAH"
Response: -0.634

Request: What about this variant? "EQRVMALYDFQSRSPREVTMKKGDVLTLLSSINKDWWKVEAADHQGIVPAVYVRRLAH"
Response: -0.802

Request: What about this variant? "EQRVMALYDFQARSPREVTMKKGDVLTLLSSINKDWWKVEAADHQGIVPAEYVRRLAH"
Response: -0.31

Request: What about this variant? "EQRVMALYDFQARSPRQVTMKKGDVLTLLSSINKDWWKVEAADHQGIVPAVYVRRLAH"
Response: -0.239

Request: What about this variant? "EQRVMALYDFQASSPREVTMKKGDVLTLLSSINKDWWKVEAADHQGIVPAVYVRRLAH"
Response: -0.221

Request: What about this variant? "EQRVMALYDFQARSPREVTMKKGDVLTLLSSINKDWWYVEAADHQGIVPAVYVRRLAH"
Response: -0.311

Request: What about this variant? "EQRVMALYDFQARSPREVTMKKGLVLTLLSSINKDWWKVEAADHQGIVPAVYVRRLAH"
Response: -0.986

Request: What about this variant? "EQRVMALYDFQARSPREVTTKKGDVLTLLSSINKDWWKVEAADHQGIVPAVYVRRLAH"
Response: -0.877

Request: What about this variant? "EQRVMALYDFQARSPREVTMKKGDVLTLLSSINKDWWKVEAADYQGIVPAVYVRRLAH"
Response: -0.804

Request: What about this variant? "EQRVMALYDFPARSPREVTMKKGDVLTLLSSINKDWWKVEAADHQGIVPAVYVRRLAH"
Response: -0.91

Request: What about this variant? "EQRVMALYTFQARSPREVTMKKGDVLTLLSSINKDWWKVEAADHQGIVPAVYVRRLAH"
Response: -0.862
